These data points were gathered from patent US11254663B2.

Target: UniProtKB Q96RI1
Test: FXR EC50 (FXR agonist potency reported with each Example)
Type: cell-based
Endpoint: log10 of EC50 (log10 of the value in nM)

# Compound, Study System, log10 of EC50
records = [
    ("Cc1cnc(C23CCC(CN(C(=O)C4CCC(F)(F)C4)c4cccc(-c5nc(C6CC6)no5)c4)(CC2)CC3)o1 (stereo not shown)", "UniProtKB Q96RI1", 2.49),
    ("Cn1nc(C2CC2)cc1C12CCC(CN(C(=O)C34CC(F)(C3)C4)c3cccc(-c4noc(C(F)F)n4)c3)(CC1)CC2", "UniProtKB Q96RI1", 2.02),
    ("O=C(N1CCCC1)N(CC12CCC(c3nc(C4CC4)no3)(CC1)CC2)c1cccc(-c2nc(C3CC3)no2)c1", "UniProtKB Q96RI1", 2.51),
    ("CCOc1nnc(-c2cccc(N(CC34CCC(c5nc(C6CC6)no5)(CC3)CC4)C(=O)C3CC(C(F)F)C3)c2)o1 (stereo not shown)", "UniProtKB Q96RI1", 2.44),
    ("COc1ccc(C23CCC(CN(C(=O)C4CC(F)(F)C4)c4cccc(-c5nc(C6CC6)no5)c4)(CC2)CO3)cc1", "UniProtKB Q96RI1", 3.06),
    ("O=C([C@H]1C[C@](O)(C(F)(F)F)C1)N(CC12CCC(c3nc(C4CC4)no3)(CC1)CC2)c1cccc(-c2nc(C3CC3)no2)c1", "UniProtKB Q96RI1", 2.18),
    ("COCc1nc(-c2cccc(N(CC34CCC(c5nc(C6CC6)no5)(CC3)CC4)C(=O)C3CCC(F)(F)C3)c2)cs1 (stereo not shown)", "UniProtKB Q96RI1", 2.34),
]

====

Biological target: FXR (Homo sapiens (Human), UniProt Q96RI1)
Sequence (Q96RI1 262-486): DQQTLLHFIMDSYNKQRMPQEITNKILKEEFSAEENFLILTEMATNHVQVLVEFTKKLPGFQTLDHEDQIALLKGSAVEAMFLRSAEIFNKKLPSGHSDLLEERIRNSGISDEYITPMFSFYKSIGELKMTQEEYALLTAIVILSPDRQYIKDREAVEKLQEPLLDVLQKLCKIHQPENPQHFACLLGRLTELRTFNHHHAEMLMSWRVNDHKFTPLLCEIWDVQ
Test: transient human FXR/Gal4-luciferase reporter assay
Assay type: cell-based
Conditions: Gal4-hFXR fusion construct, HEK293 reporter cells; response relative to 8 μM GW-4064
pEC50: −log10 of the molar value.
# if value of pEC50 reaches 7, tag yes; if it stays below, tag no

# Structure Smiles String, Assigned Class
data = [
    ("CC1(C(=O)N(CC23CCC(c4noc(C(C)(C)C)n4)(CC2)CC3)c2cccc(-c3ccc(OC(F)F)cc3)c2)COC1", "no"),
    ("O=C(N(CC12CCC(c3nc(C4CC4)no3)(CC1)CC2)c1cccc(-c2cc(Cl)cc(Cl)c2)c1)C12CC(F)(C1)C2", "no"),
    ("Cc1nc2ccc(-c3cccc(N(CC45CCC(c6nc(C(C)C)no6)(CC4)CC5)C(=O)C45CC(F)(C4)C5)c3)cc2s1", "yes"),
]

====

Biological target: FXR (Homo sapiens (Human), UniProt Q96RI1)
Assay: transient human FXR/Gal4-luciferase reporter assay
Format: cell-based
Settings: Gal4-hFXR fusion construct, HEK293 reporter cells; response relative to 8 μM GW-4064
Measured log10 EC50 of individual entries
Endpoint: log10 EC50 (log10 of the value in nM)

# Compound, Endpoint, Observed Result
measured = [
    ("CC(C)Oc1ccc(-c2ccnc(N(CC34CCC(c5ccc(C(C)(F)F)cn5)(CC3)CC4)C(=O)[C@H]3C[C@@](C)(OC(F)F)C3)c2)cc1", "log10 EC50", 1.43),
    ("O=C(N(CC12CCC(c3nc(C4CC4)no3)(CC1)CC2)c1cccc(-c2ccc(C(F)(F)F)nc2)c1)C12CC(F)(C1)C2", "log10 EC50", 2.49),
    ("O=C(N(CC12CCC(c3nc(C4CC4)no3)(CC1)CC2)c1cccc(-c2cccn3ccnc23)c1)C12CC(F)(C1)C2", "log10 EC50", 2.59),
    ("CC(C)(F)c1nc(C23CCC(CN(c4cccc(C5=CCC(C(C)(C)O)CC5)c4)C(=O)[C@H]4C[C@](O)(C(F)(F)F)C4)(CC2)CC3)no1 (stereo partly drawn)", "log10 EC50", 1.62),
    ("CC(C)(C)c1nc(C23CCC(CN(c4cccc(-c5ccc(NS(C)(=O)=O)cc5)c4)C(=O)[C@H]4C[C@@](C)(O)C4)(CC2)CC3)no1", "log10 EC50", 2.96),
    ("CC(C)c1noc(C23CCC(CN(C(=O)C45CC(F)(C4)C5)c4cccc(-c5ccc(NS(=O)(=O)C(F)(F)F)cc5)c4)(CC2)CC3)n1", "log10 EC50", 1.98),
    ("CCOc1ncc(-c2ccnc(N(CC34CCC(c5noc(C(C)(C)C)n5)(CC3)CC4)C(=O)C34CC(F)(C3)C4)c2)cn1", "log10 EC50", 2.20),
    ("COc1nccc(-c2cccc(N(CC34CCC(c5nc(C6CC6)no5)(CC3)CC4)C(=O)C3CCC3)c2)n1", "log10 EC50", 2.76),
    ("COc1cc(-c2cccc(N(CC34CCC(c5nc(C6CC6)no5)(CC3)CC4)C(=O)C34CC(F)(C3)C4)c2)cn2ncnc12", "log10 EC50", 3.18),
]
